# EC50 per record follows
# target system: T1, human G protein-coupled receptor class C group 5 member D (GPRC5D) protein (human, UniProt Q9NZD1 1-345)
# T1 construct: whole, on cells; The same protein on several cell lines; also called HuGPRC5D; CHO-GPRC5D
# T1 sequence (Q9NZD1 whole entry): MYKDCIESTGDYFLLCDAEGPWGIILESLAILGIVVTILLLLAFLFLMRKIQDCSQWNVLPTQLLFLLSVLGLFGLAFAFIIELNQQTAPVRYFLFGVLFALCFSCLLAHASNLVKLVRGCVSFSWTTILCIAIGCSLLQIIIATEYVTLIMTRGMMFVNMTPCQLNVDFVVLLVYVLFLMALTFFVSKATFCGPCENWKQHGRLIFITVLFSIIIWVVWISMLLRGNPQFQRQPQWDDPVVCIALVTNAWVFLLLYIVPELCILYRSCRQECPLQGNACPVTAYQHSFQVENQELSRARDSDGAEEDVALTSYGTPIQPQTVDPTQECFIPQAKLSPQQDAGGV
# assay info: flow cytometry (FACS) on K562-GPRC5D cells
Just the number please, in µg/mL, no unit attached.

binder	EC50 / µg/mL
4B3 VHH (VHH, also called G5VHH2) VHH: EVQLVESGGGLVQPGGSLRLSCAASGLIFSRYVMGWFRQAPGKGRELVAFINSSGGSTNYPDSVEGRFTISRDNAKRMVYLQMNSLRAEDTAVYYCAASSRTSTTRGYNYWGQGTQVTVSS	0.216

Query: Given the binder 4A2 VHH (VHH) VHH: EVQLVESGGGLVQPGGSLRLSCAASGFIFSRYDMGWFRQAPGKGRELVAVITWGGGSTYYPDSVEGRFTISRDNAKRMVYLQMNSLRAEDTAVYYCAARSASAYRTGRLEYNYWGQGTQVTVSS , what is its reported EC50?
Response: 0.164

Query: Given the binder 3B5 VHH (VHH, From the synthetic nanobody library NanoOri_1.0 (Caplacizumab backbone)) VHH: EVQLVESGGGLVQPGGSLRLSCAASGFIFSRYGMGWFRQAPGKGRELVAAINWSDGTTYYPDSVEGRFTISRDNAKRMVYLQMNSLRAEDTAVYYCAADRRLRSQTGYDYWGQGTQVTVSS , what is its reported EC50?
Response: 0.207

Query: Given the binder 3E7 VHH (VHH, also called G5VHH1) VHH: EVQLVESGGGLVQPGGSLRLSCAASGRIFSRDAMGWFRQAPGKGRELVAAINSSGGNTYYPDSVEGRFTISRDNAKRMVYLQMNSLRAEDTAVYYCAARGVRWTSTTAYGYNYWGQGTQVTVSS , what is its reported EC50?
Response: 0.576
